Here the recorded % inhibition of NMDA is given for each entry.
system: Rat brain NMDA receptors; assay: Blockade of NMDA response in Xenopus oocytes injected with rat brain RNA; format: biochemical; conditions: 1 μM
Report the figure in % without appending any unit label.

Sample records with % inhibition of NMDA:
CCCCCCC(C)(C)c1cc(O)c2c(c1)OC(C)(C)[C@H]1CC=C(CO)C[C@H]21 [HU-211, reference compound]: 32
CCCCCCC(C)(C)c1cc(OC(C)=O)c([C@H]2C=C(C(=O)N(CC)CC)[C@H]3C[C@@H]2C3(C)C)c(OC(C)=O)c1 [HU-270]: 20
CCCCCCC(C)(C)c1cc(OC(C)=O)c([C@H]2C=C(C(=O)NCCO)[C@H]3C[C@@H]2C3(C)C)c(OC(C)=O)c1 [HU-271]: 16

stdin: Please provide the recorded % inhibition of NMDA for CCCCCCC(C)(C)c1cc(OC(C)=O)c([C@H]2C=C(C(=O)O)[C@H]3C[C@@H]2C3(C)C)c(OC(C)=O)c1 , tested on Rat brain NMDA receptors.
stdout: 35

Hello, the source for this data is patent US5434295A, in case you need it.
